System: SK-MEL-5
method.summary: NCI tumour cell line growth inhibition, 48 h
Activity calls are given as the source filed them. Cut-off read from the data, not from the text of the source: active = GI50 up to about 1.1 µM and inactive = higher.
So I've got a bunch of compounds here, and I need their GI50 values.

response.value for O=C/C=C/c1ccco1 (field: GI50) = > 100 µM (inactive)

response.value for CC1=C(/C(C)=N/NC(=O)C(N)=O)Sc2ccccc2N1 (field: GI50) = > 100 µM (inactive)

response.value for CC(C)C(C(=O)O)N(CC1(O)OCC(O)C(O)C1O)N=O (stereo not drawn) (field: GI50) = > 100 µM (inactive)

response.value for CCC1CCCCN1CC(C(C)=O)C(c1ccccc1)c1c(O)c2ccccc2oc1=O (stereo not drawn) (field: GI50) = > 100 µM (inactive)

response.value for CCCCn1c(C)c2c(c1C)C(=O)N(CC(O)CN1CCc3ccccc3C1)C2=O (stereo not drawn) (field: GI50) = 31.5 µM (inactive)

response.value for CN/C(=N\c1ccc(OC)c2ccccc12)SC (field: GI50) = > 10 µM (inactive)

response.value for CC(=O)ON(C(C)=O)c1ccc(-c2nc3ccccc3s2)cc1 (field: GI50) = 24.5 µM (inactive)

response.value for COc1cccc(C(NC2=NCCC=N2)c2cc3c(cc2O)OCO3)c1O (stereo not drawn) (field: GI50) = 38.8 µM (inactive)

response.value for NC(=O)c1ccc(NCC2=CC(=O)C=CC2=O)cc1 (field: GI50) = 15.5 µM (inactive)

response.value for Nc1ccccc1C(=O)NNC(=O)c1ccccc1N (field: GI50) = > 100 µM (inactive)

response.value for NC1CCC2(O)c3ccccc3C2C1 (stereo not drawn) (field: GI50) = > 100 µM (inactive)

response.value for CC(=O)CC(O)(C(F)(F)Cl)C(F)(Cl)Cl (stereo not drawn) (field: GI50) = > 10 µM (inactive)

response.value for CC1C=CC(C)C2(O)C(=O)NC(O)C12 (stereo not drawn) (field: GI50) = > 100 µM (inactive)

response.value for Cc1nc(O)c(Cc2ccccc2O)c(-c2ccccc2)n1 (field: GI50) = > 100 µM (inactive)

response.value for COc1cc2oc(=O)cc(C)c2cc1OC (field: GI50) = > 100 µM (inactive)

response.value for C/C=C/C=C/C1=NN(c2cccc(S(=O)(=O)O)c2)C2(C1)C(Cl)C(=O)N2c1nc2ccccc2s1 (stereo not drawn) (field: GI50) = 12.2 µM (inactive)

response.value for Oc1ccc(-c2nn3c(CCCCCCCCc4nnc5sc(-c6ccc(O)cc6)nn45)nnc3s2)cc1 (field: GI50) = > 100 µM (inactive)

response.value for CSc1nc2c(nc(N)n2C2OC(COC(C)=O)C(OC(C)=O)C(OC(C)=O)C2OC(C)=O)c(=O)n1C (stereo not drawn) (field: GI50) = > 100 µM (inactive)

response.value for C#CCCCC(=O)N(C(=O)C[S+]([O-])CC)c1ccccc1 (stereo not drawn) (field: GI50) = > 100 µM (inactive)

response.value for CC1=NN2C(c3ccc(C)cc3)=CSC2=NC(C)(C)C1 (field: GI50) = > 100 µM (inactive)

response.value for O=C(O)c1ccccn1 [2-PICOLINIC ACID] (field: GI50) = > 100 µM (inactive)

response.value for NC(CCP(=O)(O)O)C(=O)O (stereo not drawn) (field: GI50) = > 100 µM (inactive)

response.value for O=C(Nc1ccccc1)Oc1ccc(C(=S)Nc2ccc(Br)cc2)cc1 (field: GI50) = 16 µM (inactive)

response.value for O=C1CCCCC1CN1CCCCC1 (stereo not drawn) (field: GI50) = > 100 µM (inactive)

response.value for O=C(c1cccs1)N(C(=O)N1CCCCC1)c1ccccc1 (field: GI50) = > 100 µM (inactive)

response.value for COC(C/C=C\C=C\CC/C=C/CC(C)/C=C/C(=C\C(=O)O)CC(=O)O)/C(C)=C\C=C(/C)C(=O)O (stereo not drawn) (field: GI50) = 99.3 µM (inactive)

response.value for Cc1c(/N=N/c2ccc(Cl)cc2)c(-c2ccccc2)n(C2OC(CO)C(O)C(O)C2O)c(=S)c1C#N (stereo not drawn) (field: GI50) = 13.1 µM (inactive)

response.value for CC(C)(C)C(=O)C(N)C(=O)C(C)(C)C (field: GI50) = > 100 µM (inactive)

====

Test system: NCI-H522
method.summary: NCI tumour cell line growth inhibition, 48 h
Calls of active or inactive are those of the source. No stated cut-off is given here; in the data, active = GI50 up to about 1.1 µM and inactive = higher.
measurement.name: GI50

response.value for [O-][S+]1Nc2cccc(C(F)(F)F)c2S1 (stereo unspecified) (field: GI50) = 28.1 µM (inactive)

response.value for CC(C)OC(=O)c1cccnc1/C=N/O (field: GI50) = > 100 µM (inactive)

response.value for COc1ccc2nc3cc(Cl)ccc3c(NCCCN3CCN(CCCNc4ccc5nnn6c7ccccc7c(=O)c4c56)CC3)c2c1 (field: GI50) = 0.391 µM (active)

response.value for OC(c1ccc(F)cc1)C(F)(F)c1nc(-c2ccccc2)no1 (stereo unspecified) (field: GI50) = 2.44 µM (inactive)

response.value for CC1=CCCC2C1(C)CCC(C)C2(C)Cc1cc(O)ccc1O (stereo unspecified) (field: GI50) = 3.18 µM (inactive)

response.value for N#C/C(=C1\SC(C(N)=O)=C(N)N1c1ccccc1)c1nc2ccccc2[nH]1 (field: GI50) = > 100 µM (inactive)

====

Test system: UACC-257
method.summary: NCI tumour cell line growth inhibition, 48 h
Calls of active or inactive are those of the source. No stated cut-off is given here; in the data, active = GI50 up to about 1.1 µM and inactive = higher.
Reply using exactly one outcome from 1 (yes) for active, 0 (no) for inactive

**Query** What did this assay record as the result for CCOc1ccc(/N=C\c2cc(OC)c(OC)c(OC)c2)cc1 ?
**Result** 0 (no)

**Query** What did this assay record as the result for CC(Cl)CC(=O)OCC1CCCN2CCCCC12 (centres undefined) ?
**Result** 0 (no)

**Query** What did this assay record as the result for CC(=O)ON(C(C)=O)c1ccc(-c2nc3ccccc3s2)cc1 ?
**Result** 0 (no)

**Query** What did this assay record as the result for CC(C)(C)OC(=O)NC(CCCCNC(=O)OCc1ccccc1)C(=O)NCCNc1ccc(NCCNC(=O)C(CCCCNC(=O)OCc2ccccc2)NC(=O)OC(C)(C)C)c2c1C(=O)c1ccccc1C2=O (centres undefined) ?
**Result** 0 (no)

**Query** What did this assay record as the result for COC(=O)CCC(=O)c1ccc2c(c1)CC1(C2)Cc2ccc3c(c2C1)CCCC3=O (centres undefined) ?
**Result** 0 (no)

**Query** What did this assay record as the result for CCOP(=O)(OCC)C(NC(=O)C(C(F)(F)F)C(F)(F)F)c1ccccc1 (centres undefined) ?
**Result** 0 (no)

**Query** What did this assay record as the result for O=C1c2ccccc2C(=O)N1CCCSc1ccccc1 ?
**Result** 0 (no)

**Query** What did this assay record as the result for O=P1(NCCCl)OCCCN1CCCl (centres undefined) [IFOSFAMIDE] ?
**Result** 0 (no)

**Query** What did this assay record as the result for Cc1ccc(S(=O)(=O)N/N=C(\C(=O)Nc2cccc([N+](=O)[O-])c2)c2nc3ccc([N+](=O)[O-])cc3nc2O)cc1 ?
**Result** 0 (no)

**Query** What did this assay record as the result for CC(=O)Nc1ccc2nc(N)n[n+]([O-])c2c1 ?
**Result** 0 (no)

**Query** What did this assay record as the result for COc1ccc(C(=O)C(C(=O)C(=O)Nc2nccs2)c2ccc(OC)cc2)cc1 (centres undefined) ?
**Result** 0 (no)

**Query** What did this assay record as the result for COc1ccc2c3c1O[C@H](c1ccc(O)cc1)[C@H]3[N+](C)(C)CC2 ?
**Result** 0 (no)

**Query** What did this assay record as the result for O=C1N[C@@H](c2c[nH]c3ccc(Br)cc23)C(=O)N[C@H]1c1c[nH]c2ccc(Br)cc12 ?
**Result** 0 (no)

**Query** What did this assay record as the result for Cc1cc(C)c(-n2c(C)c(C)c(C#N)c2N)c(C)c1 ?
**Result** 0 (no)

**Query** What did this assay record as the result for C[C@@H]1O[C@@H]2OCC[C@@H]2C2=C1C(=O)c1ccccc1C2=O ?
**Result** 0 (no)

**Query** What did this assay record as the result for CC1CC[C@@]2(OC1)OC1C[C@H]3[C@@H]4CC=C5CC(OC6OC(CO)C(OC7OC(CO)C(O)C(OC8OCC(O)C(O)C8O)C7OC7OC(CO)C(O)C(O)C7O)C(O)C6O)CCC5(C)[C@H]4CCC3(C)C1[C@@H]2C (some centres undefined) ?
**Result** 0 (no)

**Query** What did this assay record as the result for CCC1=NC(C(F)(F)F)(C(F)(F)F)N=C(N2CCOCC2)O1 ?
**Result** 0 (no)

**Query** What did this assay record as the result for C1CCOC2(CCC3(CC2)OCCCCO3)OC1 ?
**Result** 0 (no)

**Query** What did this assay record as the result for C[C@H](N)C(=O)N[C@@H]1[C@H]2C(=C(O)C[C@@H](O)[C@@H]2O)C(=O)O[C@]1(C)C(Cl)Cl ?
**Result** 1 (yes)

**Query** What did this assay record as the result for COc1ccc(C2S/C(=C\c3cccc([N+](=O)[O-])c3)C(=O)N2NC(=O)Cc2ccccc2)cc1 (centres undefined) ?
**Result** 0 (no)

**Query** What did this assay record as the result for CC(=O)NNc1nc(C)c(C(/C=C/c2ccc(Cl)cc2)=N/NC(=O)C[N+](C)(C)C)s1 ?
**Result** 0 (no)

**Query** What did this assay record as the result for COc1cc2cc(OC)c3cc4c(cc3c2c(OC)c1OC)OCO4 ?
**Result** 0 (no)

**Query** What did this assay record as the result for C[C@@H]1CC(=O)C2CCCC1C2=O (some centres undefined) ?
**Result** 0 (no)

**Query** What did this assay record as the result for Cn1c(-c2ccccc2)cc2c3ccsc3c3ccsc3c21 ?
**Result** 0 (no)

**Query** What did this assay record as the result for CCCn1cnc2c(SCc3ccc(Cl)cc3)nc(N)nc21 ?
**Result** 0 (no)

**Query** What did this assay record as the result for Cc1[nH]c2ccccc2c1C1Cc2ccccc2N1C(=O)/C(Cl)=C/c1ccccc1 (centres undefined) ?
**Result** 0 (no)

**Query** What did this assay record as the result for CNC(C)(C)Cc1ccc(Cl)cc1 ?
**Result** 0 (no)

**Query** What did this assay record as the result for CCc1n[nH]c(=O)[nH]1 ?
**Result** 0 (no)

**Query** What did this assay record as the result for CCCCOC(=O)CN1C(=O)c2ccccc2C1=O ?
**Result** 0 (no)

**Query** What did this assay record as the result for O=c1nc2sc3ccc4ccccc4c3n2nc1-c1ccccc1 ?
**Result** 0 (no)

**Query** What did this assay record as the result for C#CCOC(=O)C(N)C(C)O (centres undefined) ?
**Result** 0 (no)

**Query** What did this assay record as the result for O=C(O)CC/C(=N\Nc1nsc2ccccc12)c1ccc(Cl)cc1 ?
**Result** 0 (no)

**Query** What did this assay record as the result for CCOC(=O)Nc1cc(NC(/C=N/NC(C)=O)C(=O)OCC)c(OC)cc1NC(C)=O (centres undefined) ?
**Result** 0 (no)

**Query** What did this assay record as the result for CCCC(O)[C@@H](O)c1ccc2c(c1O)C(=O)c1c(OC)cccc1C2=O (some centres undefined) ?
**Result** 0 (no)
